- RUN DESCRIPTION: Tmax in ICR mouse at 40 mg/kg, ip
- Format: ADME, organism-based
- APPLIED CONDITIONS: in vivo

COMPOUND STRING	Tmax
CCCCc1cc(=O)oc2cc(C)cc(O[C@H](C)C(=O)N3Cc4[nH]c5ccccc5c4C[C@H]3C(=O)OC)c12	2 h
